# test_target: T1, biotinylated hOX40L (human, UniProt P23510 51-183, limits assumed, biotinylated (sites not given))
# T1 construct: construct not described
# T1 sequence: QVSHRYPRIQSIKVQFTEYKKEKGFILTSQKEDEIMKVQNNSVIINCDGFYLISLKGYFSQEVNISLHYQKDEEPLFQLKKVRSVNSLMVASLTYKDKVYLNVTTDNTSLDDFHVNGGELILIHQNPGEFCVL
# protocol_text: blocking ELISA: biotinylated hOX40L preincubated with titrated antibody, added to coated hOX40-Fc, Extravidin-HRP
measured_metric: IC50 (nM)
Give the value in nM but do not write nM after it.

Query block: What value of IC50 has been reported for the following binder? positive control based on the sequences of the anti-hOX40L antibody amlitelimab (antibody, IgG4, V domains shown, also called Pos; Ctrl) VH: EVQLVESGGGLVQPGGSLRLSCAASGFTFSNYAMNWVRQAPGKGLEWVSTISGSGGATRYADSVKGRFTISRDNSRNTVYLQMNSLRVEDTAVFYCTKDRLIMATVRGPYYYGMDVWGQGTTVTVSS VL: DIQMTQSPSSLSASVGDRVTITCRASQSISSYLNWYQQKPGKAPNLLIYAASSLQSGVPSRFSGSGSETDFTLTISSLQPEDFATYYCQQSHSVSFTFGPGTKVDIK
Result block: 0.62

Query block: Field entry: anti-hOX40L antibody clone 128 (antibody, human IgG1, kappa, L234A L235A, V domains shown) VH: EVQLVESGGGLVTPGGSLRISCAASGFTFNNAWMTWVRQAPGKGLEWVGRIKSISYGGTTDSAAPVKGRFTISRDDSENTLYLQMSSLKTEDTAVYYCSTGSVWKYGGSLDFWGQGTLVTVSS VL: DIQMTQSPSSLSASVGDRVTFTCRASQGISRFLNWYQQKPGKAPKLLIYAASTLQNGVPSRFSGSGSGTDFTLTISSLQPEDFATYFCQQTYSTPLTFGGGTKVEIYR
Result block: 7.52

Query block: Proceed to anti-hOX40L antibody clone 130 (antibody, human IgG1, kappa, L234A L235A, V domains shown) VH: EVQLVESGGGLVKPGGSLRLSCAASGFTFSYAWMSWVRQAPGRGLEWVGRIKSETDGGTTDYAAPVKGRFTISRDHSENTLFLQMNSLKTEDTAVYYCTTGSSWNVYFFDFWGQGTLVTVSS VL: DIQMTQSPSSLSASVGDSVTITCRASQSISNYLNWYHQKPGKAPKLLIYAAYRLQTGVPSRFSGSGSGTDFTLTISSLQPEDFATYYCQQSYSSPLTFGGGTKVEIKR
Result block: 13

Next:
Query block: Looking for the measured IC50 of anti-hOX40L antibody clone 122 (antibody, human IgG1, kappa, L234A L235A, V domains shown) VH: EVQLVESGGGLVQPGGSLRLSCAASGFTFSNYWMHWVRQAPGKGLVWVSRINSDGISTRYADSVKGRFTISRDNAKNTLYLQMKSLRAEDTAVYYCVRDFQLELPDYWGQGTLVTVSS VL: DIQMTQSPSSLSASVGDRVTITCRASQGIRDDLAWYQQKAGKAPKRLIFAASSLQSGVPSRFSGSGSGTEFTLTISGLQPEDFANYYCLQHKSNPFTFGQGTKLEIKR , can you help?
Result block: 1.57
